Give measured Percent Effect for each item. Keep answers brief.
- MEASURED_ON: Arginase-2, mitochondrial (Homo sapiens) (UniProt P78540)
- Sequence (P78540 whole entry): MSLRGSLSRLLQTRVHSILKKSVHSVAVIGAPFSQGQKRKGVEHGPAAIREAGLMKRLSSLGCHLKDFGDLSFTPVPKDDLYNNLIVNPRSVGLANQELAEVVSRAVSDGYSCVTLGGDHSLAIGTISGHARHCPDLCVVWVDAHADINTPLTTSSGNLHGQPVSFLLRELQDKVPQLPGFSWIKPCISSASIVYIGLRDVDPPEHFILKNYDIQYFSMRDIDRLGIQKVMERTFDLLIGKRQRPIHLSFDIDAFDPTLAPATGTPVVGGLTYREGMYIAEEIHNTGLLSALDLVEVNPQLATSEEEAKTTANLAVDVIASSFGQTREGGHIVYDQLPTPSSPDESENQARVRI
- ASSAY_INFO: in vitro enzyme assay to detect the production of urea directly proportional to the activity of Arginase II; note: in the data most compounds retested in dose-response had high values
- Type: functional
- Parameters: scale not given: direction of the effect not stated beside the values
- SETUP_CONDITIONS: 33.3 µM
Give bare numbers, in %.

>>> measured_result("CC(CNC(=O)N1CCN(c2cnccn2)CC1)Cc1cccs1 (stereo not drawn)")
-1.67
>>> measured_result("CCc1nc(C2CCCN2Cc2nc(C3CC3)no2)no1 (stereo not drawn)")
-12.4
>>> measured_result("Cc1ccc(NC2CCN(C(=O)Cc3cccc(F)c3)CC2)nn1")
-12
>>> measured_result("CC(O)CN1CCN(Cc2csc(-c3ncccn3)n2)CC1 (stereo not drawn)")
3.55

# per-item lookup of Percent Effect; items listed below
1. Cc1cc(CN2CCOCS2(=O)=O)ccc1F
2. O=c1[nH]c2c(c(=O)n1C1CCCCC1)CCC2Nc1ccccc1 (stereo not drawn)

Result:
1. 4.29
2. 1.58

# per-item lookup of Percent Effect; items listed below
1. Cc1cnn(CC2CN(c3ncnc4ccccc34)CCO2)c1 (stereo not drawn)
2. O=C(COCc1ccccc1)N1CCCC(n2cncn2)C1 (stereo not drawn)
3. CC(C)c1nc(CN2CCN(C(C)c3nc(C4CC4)no3)CC2)no1 (stereo not drawn)
4. O=C(COc1cccc(Br)c1)N1CCN(c2nccs2)CC1
5. CN(CC1CC1)c1ccc2ccc(C(=O)NCCN3CCOCC3)cn12
6. COCC(=O)N1CCC(c2noc3nc(C)cc(C(F)(F)F)c23)CC1

Result:
[-1.14, -2.4, 1.07, 47.4, 2.28, -7.66]

# per-item lookup of Percent Effect; items listed below
1. O=C(NCCCN1CCCC1)c1n[nH]c(=O)c2ccccc12
2. Cc1csc(N2CCN(Cc3ccccn3)CC2C)n1 (stereo not drawn)
3. Cc1ccc(-n2nnc(C(=O)Nc3cc(C)nn3C)c2C2CC2)cc1

Result:
[2.13, 0.909, 1.66]

# per-item lookup of Percent Effect; items listed below
1. Cc1cc2nc(SCC(=O)N3CCCC3)n(-c3ccccc3)c(=O)c2[nH]1
2. CC(=O)N1CCCC(c2ccc(Nc3nc(C)cc(C)n3)cn2)C1 (stereo not drawn)
3. Cc1nc(C)n(C2CCCN(C(=O)CCc3ccncc3)C2)n1 (stereo not drawn)
4. Cc1cnn(CC2CN(c3cnc4ccccc4n3)CCO2)c1 (stereo not drawn)
5. c1cncc(COCc2nnc3n2CCN(Cc2ccsc2)C3)c1
6. CC(C)n1cc(CN2CCCN(C(=O)c3ccc[nH]3)CC2)cn1
7. CC(C)(C)c1cnc(CN2CCCC2Cn2cccn2)o1 (stereo not drawn)

Result:
[9.47, 3.5, 4.17, -4.56, -23.4, 15.8, -0.38]

* * *

- MEASURED_ON: Protein translocase subunit SecA (Escherichia coli (strain K12)) (UniProt P10408)
- Sequence (P10408 whole entry): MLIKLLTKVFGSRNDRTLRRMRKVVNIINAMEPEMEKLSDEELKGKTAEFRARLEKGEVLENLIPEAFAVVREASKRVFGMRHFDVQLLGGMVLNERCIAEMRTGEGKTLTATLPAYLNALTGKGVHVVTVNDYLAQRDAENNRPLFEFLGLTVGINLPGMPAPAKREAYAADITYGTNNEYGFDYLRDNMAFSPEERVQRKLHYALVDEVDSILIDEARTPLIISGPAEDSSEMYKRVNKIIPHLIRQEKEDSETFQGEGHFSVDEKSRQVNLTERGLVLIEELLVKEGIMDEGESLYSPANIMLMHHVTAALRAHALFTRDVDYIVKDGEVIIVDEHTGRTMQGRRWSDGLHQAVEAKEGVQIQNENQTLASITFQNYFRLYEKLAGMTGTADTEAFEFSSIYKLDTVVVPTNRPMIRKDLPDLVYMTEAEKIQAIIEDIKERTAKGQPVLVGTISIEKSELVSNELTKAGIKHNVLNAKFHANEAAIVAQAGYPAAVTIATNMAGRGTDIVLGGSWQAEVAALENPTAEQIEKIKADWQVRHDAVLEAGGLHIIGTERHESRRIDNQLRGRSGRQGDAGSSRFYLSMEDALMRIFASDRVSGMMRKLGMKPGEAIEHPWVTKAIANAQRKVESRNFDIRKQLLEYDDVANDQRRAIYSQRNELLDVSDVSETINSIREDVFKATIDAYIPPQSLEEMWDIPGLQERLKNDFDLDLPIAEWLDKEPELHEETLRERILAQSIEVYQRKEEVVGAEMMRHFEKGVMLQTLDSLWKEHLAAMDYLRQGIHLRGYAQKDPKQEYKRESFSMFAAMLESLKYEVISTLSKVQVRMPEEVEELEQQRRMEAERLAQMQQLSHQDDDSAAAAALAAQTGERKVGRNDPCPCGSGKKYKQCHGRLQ
- ASSAY_INFO: Assay to Identify E. coli SecA ATPase Inhibitors
- Format: functional
- Design: scale not given: direction of the effect not stated beside the values
- SETUP_CONDITIONS: 30 µM
Entries with a potency or affinity are not part of this list.
PROPERTY: Percent Effect

Past entries and their recorded results:
>>> measured_result("Cc1cccc(CC(=O)NCCCOC(C)C)c1")
"-0.872%"
>>> measured_result("COCCNC(=O)CCc1c(C)nn(-c2nc(C)c(C)c(=O)[nH]2)c1C")
"0.376%"
>>> measured_result("Cc1nc(C2CCCN2CC(=O)N2CCCc3ccccc32)no1 (configuration not stated)")
"-2.99%"

# per-item lookup of Percent Effect; items listed below
1. O=C(CCc1nc2cccnc2[nH]1)Nc1cccnc1
2. Cc1ccc(N2CCCC(NCc3ccc(C)o3)C2)nn1 (configuration not stated)
3. CCc1nc(C2CCCN(C(=O)c3cccc4cn[nH]c34)C2)no1 (configuration not stated)
4. COc1ccc(OC)c(NC(=O)c2nc3ccccc3n(C)c2=O)c1
5. Cn1ccnc1-c1ccccc1C(=O)N1CCc2c(nc(N)[nH]c2=O)C1
6. O=C1[C@H]2CC[C@H](CN(C3CSCCSC3)C2)N1Cc1cscn1
7. O=S(=O)(c1ccccc1)N1CCN(CCn2ccnc2)CC1

Result:
["-3.23%", "-0.735%", "-7.64%", "1.79%", "-3.72%", "-0.514%", "-6.59%"]

# per-item lookup of Percent Effect; items listed below
1. Cc1cc(C[S+]([O-])CC(=O)NCc2cccs2)no1 (configuration not stated)
2. CCOc1ccc(-c2ccnc(CC)n2)cc1C(=O)O

Result:
1. -6.18%
2. 0.91%

* * *

- MEASURED_ON: Ubiquitin-activating enzyme e1, putative (Leishmania donovani (strain BPK282A1))
- ASSAY_INFO: Leishmania donovani Ubiquitin Activating Enzyme (LdE1)
- Type: functional
- Parameters: scale not given: direction of the effect not stated beside the values
- SETUP_CONDITIONS: 30 µM
Potency and affinity values are given separately.
PROPERTY: Percent Effect (%)
Answers are plain numbers, in %.

Past entries and their recorded results:
>>> measured_result("N#Cc1ccc(CNC(=O)NC2CCN(CC(F)F)CC2)cc1")
2.7
>>> measured_result("CNC(=O)CS(=O)(=O)C1CCN(S(=O)(=O)c2ccccc2Br)CC1")
0
>>> measured_result("CNc1cc2c(nn1)CCN(C(=O)c1cccc3c1OCO3)C2")
5.2
>>> measured_result("Cc1cccc2c1cnn2CCCNC(=O)CCCC(=O)O")
5.2
>>> measured_result("CN(CCCc1cnn(C)c1)C(=O)C1COc2ccccc2C1 (stereo unspecified)")
8.22
>>> measured_result("Cc1cccc(N2CC[C@@H]3CN(C(=O)c4ccco4)CCO[C@@H]3C2)n1")
10.7

# per-item lookup of Percent Effect; items listed below
1. Cc1cccnc1NCCNC(=O)[C@H]1CNC[C@@H](C(=O)N2CCCC2)C1
2. Cn1cc(-c2nc(CN3CCN(CCO)CC3)cs2)cn1
3. CC1=N[C@@]2(CC[C@@H]3CN(Cc4ccccc4F)C[C@@H]32)C(=O)N1CC1CC1
4. COc1ccc(-c2nc(CN3CCOCS3(=O)=O)c(C)o2)cc1
5. c1cc2nc(C3CCN(CC4CC4)CC3)nn2cc1N1CCCC1

Result:
[2.74, 15.8, 0, 8, 11]

* * *

- MEASURED_ON: Ubiquitin-activating enzyme e1, putative (Leishmania donovani (strain BPK282A1)) (UniProt E9BSI1)
- Sequence (E9BSI1 as listed by the source): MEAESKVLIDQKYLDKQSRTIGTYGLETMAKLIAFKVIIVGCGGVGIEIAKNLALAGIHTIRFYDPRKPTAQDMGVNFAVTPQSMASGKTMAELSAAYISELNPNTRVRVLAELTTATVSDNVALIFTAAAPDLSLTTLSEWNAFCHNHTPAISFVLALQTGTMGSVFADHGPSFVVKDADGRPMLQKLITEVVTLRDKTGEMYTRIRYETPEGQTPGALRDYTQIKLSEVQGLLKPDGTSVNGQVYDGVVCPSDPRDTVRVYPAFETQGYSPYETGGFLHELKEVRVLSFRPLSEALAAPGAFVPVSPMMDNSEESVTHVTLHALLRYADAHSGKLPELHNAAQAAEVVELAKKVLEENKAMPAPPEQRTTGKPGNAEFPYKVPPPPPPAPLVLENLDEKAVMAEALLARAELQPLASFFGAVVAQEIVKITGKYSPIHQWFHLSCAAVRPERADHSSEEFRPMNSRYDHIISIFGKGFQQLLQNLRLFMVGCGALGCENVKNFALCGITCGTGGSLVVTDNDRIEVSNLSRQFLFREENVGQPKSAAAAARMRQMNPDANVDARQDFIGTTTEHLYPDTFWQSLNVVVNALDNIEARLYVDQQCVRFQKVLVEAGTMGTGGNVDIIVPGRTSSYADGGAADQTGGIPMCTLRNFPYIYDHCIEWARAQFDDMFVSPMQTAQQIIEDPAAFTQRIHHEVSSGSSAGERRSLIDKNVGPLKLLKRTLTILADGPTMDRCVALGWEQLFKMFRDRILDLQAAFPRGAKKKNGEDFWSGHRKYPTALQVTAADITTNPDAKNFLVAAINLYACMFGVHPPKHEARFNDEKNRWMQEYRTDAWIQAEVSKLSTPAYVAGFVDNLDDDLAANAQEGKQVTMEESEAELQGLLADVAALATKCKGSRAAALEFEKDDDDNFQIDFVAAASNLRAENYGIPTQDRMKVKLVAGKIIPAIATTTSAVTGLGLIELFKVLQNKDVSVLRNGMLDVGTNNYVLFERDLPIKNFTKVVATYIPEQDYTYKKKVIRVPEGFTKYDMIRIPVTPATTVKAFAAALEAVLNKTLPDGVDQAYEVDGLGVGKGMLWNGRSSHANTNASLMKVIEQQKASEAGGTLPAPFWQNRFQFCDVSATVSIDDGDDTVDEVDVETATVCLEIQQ
- ASSAY_INFO: Leishmania donovani Ubiquitin Activating Enzyme (LdE1)
- Assay type: functional
- Parameters: scale not given: direction of the effect not stated beside the values
- SETUP_CONDITIONS: 30 µM
Measured potencies and affinities stand elsewhere.
PROPERTY: Percent Effect
Value and unit, in that order.

>>> measured_result("O=C(NCCc1ccsc1)Nc1cccnc1N1CCCC1")
"26.3%"
>>> measured_result("NC(=O)c1nnn(-c2ccc(Br)cc2)n1")
"18.2%"
>>> measured_result("O=c1n(CCSCc2ccccc2F)nc2ccccn12")
"7.79%"

# per-item lookup of Percent Effect; items listed below
1. Cc1cccc(CN2CCc3c(nc(N4CCCCC4C)[nH]c3=O)C2)n1 (stereo unspecified)
2. CSCCCNC(=O)Nc1cccc(-c2nccn2C)c1
3. O=c1cc(Cn2ccnc2)nc2n1CCCN(Cc1ccsc1)C2

Result:
4.05%
6.94%
4%

* * *

- MEASURED_ON: Sialic acid-binding Ig-like lectin 9 (Homo sapiens) (UniProt Q9Y336)
- Sequence (Q9Y336 whole entry): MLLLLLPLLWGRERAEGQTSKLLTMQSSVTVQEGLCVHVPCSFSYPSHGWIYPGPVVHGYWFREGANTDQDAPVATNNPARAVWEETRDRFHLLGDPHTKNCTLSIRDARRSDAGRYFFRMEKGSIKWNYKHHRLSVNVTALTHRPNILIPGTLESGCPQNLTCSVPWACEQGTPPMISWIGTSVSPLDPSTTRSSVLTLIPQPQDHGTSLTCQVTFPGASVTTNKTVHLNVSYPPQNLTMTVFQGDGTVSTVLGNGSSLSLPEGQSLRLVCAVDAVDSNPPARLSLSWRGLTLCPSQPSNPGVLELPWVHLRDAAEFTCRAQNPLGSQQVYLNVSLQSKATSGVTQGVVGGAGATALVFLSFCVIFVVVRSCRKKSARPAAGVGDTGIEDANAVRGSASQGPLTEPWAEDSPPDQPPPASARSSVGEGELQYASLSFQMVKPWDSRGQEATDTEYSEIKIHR
- ASSAY_INFO: Hs-Siglec9 ALPHAscreen SOP 20170721
- Set-up: scale not given: direction of the effect not stated beside the values
- SETUP_CONDITIONS: 10 µM
Give measured Percent Effect for each item. Keep answers brief.
Give bare numbers, in %.

# per-item lookup of Percent Effect; items listed below
1. CC(C)NC(=O)N1CCC(n2ccc(C(F)(F)F)n2)CC1
2. Cc1nc(CN2C(=O)CC[C@H]3[C@@H]2CCN3C(=O)c2ccsc2)cs1
3. CC(NC(=O)CSCC(=O)Nc1ccccc1)c1ccccc1 (stereo not drawn)

Result:
1: -4.66; 2: -8.13; 3: -3.2

# per-item lookup of Percent Effect; items listed below
1. CN(C)C[C@H]1OC[C@@H]2CCN(C(=O)c3ccco3)C[C@@H]21
2. O=C(Cc1cccc(F)c1)NCCNCc1cccc(O)c1
3. COc1cccc(CN(C)C(=O)CN2CC(n3nc(C)cc3C)C2)c1
4. CC1=N[C@@]2(CC[C@@H]3CN(S(=O)(=O)CC(C)C)C[C@@H]32)C(=O)N1CC(C)C
5. Cc1cnn(CC(C)NCc2ccc(OCc3ccncc3)cc2)c1 (stereo not drawn)
6. CCC(=O)N1CCc2[nH]cnc2C12CCN(C(=O)c1snnc1C)CC2
7. CN(CC(=O)N1CCN(c2ccccc2F)CC1)c1cnccn1

Result:
1. -7.74
2. 6.95
3. -5.84
4. -6.18
5. -6.57
6. 8.1
7. 4.66

# per-item lookup of Percent Effect; items listed below
1. CN(C)Cc1ccnc(C2CCCN2Cc2cc[nH]n2)n1 (stereo not drawn)
2. CCN1CCCN(C(=O)c2cnc(OC(C)C)c(Cl)c2)CC1
3. CC(C)N1CCC(NCc2cccnc2N(C)C)CC1
4. Cc1ccc(S(=O)(=O)NC(=O)c2c(C)noc2C(C)C)cc1C
5. Cc1ccc2c(ccn2CCC(=O)NC[C@@H]2CCCN3CCCC[C@H]23)c1
6. Cc1nc(C)n(CC2CCCCN2Cc2nnc(C3CC3)o2)n1 (stereo not drawn)
7. COc1ccc(C2=C(C)C(N3CCc4ccccc43)=NS2(=O)=O)cc1

Result:
1: -1.81; 2: -2.64; 3: 0.114; 4: 2.28; 5: 5.07; 6: 1.14; 7: -5.53

# per-item lookup of Percent Effect; items listed below
1. CCCNC(=O)CN1CCN(Cc2csc(C(C)(C)C)n2)CC1
2. CNC(=O)CC1CCN(Cc2nc(-c3cccc(Cl)c3)oc2C)CC1

Result:
0.111
19.1

# per-item lookup of Percent Effect; items listed below
1. Cc1nc(CN2C[C@@H]3CN(C(=O)c4ccnnc4)C[C@@H]3C2=O)cs1
2. CCN(CC)S(=O)(=O)N1CCCC(c2ccc(C(=O)O)cc2)C1 (stereo not drawn)
3. CN(C)CCNC(=O)CNC(=O)N1CCc2c([nH]c3ccc(Cl)cc23)C1

Result:
[4.54, 8.84, 0.772]

Request: Please list Percent Effect recorded for the molecule `CC(=O)N1CCCN(C(=O)c2cnc3n[nH]c(C)c3c2)CC1`
Result: 5.52
